# System Tested: Neu5Ac(a2-6)Gal(b1-4)GlcNAc(b1-2)Man(a1-6)[Man(a1-3)]Man(b1-4)GlcNAc(b1-4)GlcNAc
# Assay Comment: glycan array binding signal (z-score within array); higher = stronger binding
# Condition Set: glycan notation: IUPAC condensed, linker removed
The sample as a whole holds a higher share of the strongest signals than the screen did.
Label satisfied for high-side glycan array binding signal (z-score) (at or above 4) and not satisfied for low-side glycan array binding signal (z-score) (below it).

Previously resolved entries follow.
Binder | Classification
Gal 7 (Canis lupus) (protein) MAGSSNVPHKTSLPEGIRVGTVMRIRGVVPNKAGRFYVNLLCGEAPGSEAALHFNPRLDESTVVFNTLEQGAWGREERGTGIPFQRGQPFDVLLIATDEGFKAVVGDSEYHHFRYRIPPARVRLLEVGGDLQLESVSVF | not satisfied
Morniga (Morus nigra) (protein) MAGTSTNTQTTGTSQTVEVGLWGGPGGNAWDDGSYTGIREINLSHGDAIGAFSVIYDLNGQPFTGPTHPGNEPSFKTVKITLDFPNEFLVSVSGYTGVLPRLATGKDVIRSLTFKTNKKTYGPYGKEEGTPFSLPIENGLIVGFKGRSGFVVDAIGVHLS | satisfied
Gal 4 (Homo sapiens), Q8K419 (protein) MAYVPAPGYQPTYNPTLPYKRPIPGGLSVGMSVYIQGMAKENMRRFHVNFAVGQDDGADVAFHFNPRFDGWDKVVFNTMQSGQWGKEEKKKSMPFQKGKHFELVFMVMPEHYKVVVNGNSFYEYGHRLPVQMVTHLQVDGDLELQSINFLGGQPAAAPYPGAMTIPAYPAGSPGYNPPQMNTLPVMTGPPVFNPRVPYVGALQGGLTVRRTIIIKGYVLPTARNFVINFKVGSSGDIALHLNPRIGDSVVRNSFMNGSWGAEERKVAYNPFGPGQFFDLSIRCGMDRFKVFANGQHLFDFSHRFQAFQMVDTLEINGDITLSYVQI | not satisfied
OrysaEULS2 (Oryza sativa) (protein) MVYCRANPNYAMTARNGAVVLAPANPKDEYQHWIKDMRWSTSIKDEEGYPAFALVNKATGQAIKHSLGQSHPVRLVPYNPEVMDESVLWTESRDVGNGFRCIRMVNNIYLNFDAFHGDKYHGGVRDGTDIVLWKWCEGDNQRWKIQPYYILEQKLISEEDLNSAVDHHHHHH | not satisfied

Shift focus to the following entry.
State whether the measured glycan array binding signal (z-score) reaches 4, counting equality as reaching it, for Sp8391B-bot-388-20-388 (Bacteroides ovatus) (protein) GCQNNDENEQHYDNKLFISASNFTKEILFKAGDTNVETGLSVAIAKPEEHDIKVTMSPAPELLSTYKLAYYDETAVLLSEEHYSMPETSTTIKSGSIVSPELPIEFINTGELDIKTTYVLPVTIKSVEGIGVLQSAKTYYYVFRGASLINVVCNISRNRAYPDFKNDSKFNNLTENTMEILFKANSFPNTLNTLMGIESNYLLRIGDATIPNNQLQVATSVNNCTSADLQLESGKWYHVAVAFNKGNVKVYINGVEKLSGSTGKSSVSLGAKHTNEEDGSRCFWVGYSYKDDRYFDGVVSEVRIWNRALTAEEIQATNHFYTIEPESEGLIAYWKFDEGSGTVAKDYSVSGYDLTIEKEPKWESVSLPQ not satisfied

Each recorded value in this set is attributed to the supplement of paper PMC8728848.
